Measurement Description: Inhibition of NaV in mouse Neuro2a cells assessed as suppression of ouabain/veratridine-induced reduction in cell viability measured after 20 hrs by WST8 assay
Listing: pEC50 of selected molecules
Field pEC50 (float): negative decimal logarithm of the concentration in molar.

Input: Given the molecule NC1=N[C@H](O)[C@H]2[C@H]3O[C@]4(O)O[C@@H]([C@@H](O)[C@@]2(N1)[C@@H]4O)[C@]3(O)CO , what is its reported pEC50?
Output: 8.72

Input: Could you share which pEC50 value was measured for NC1=N[C@H](O)[C@H]2[C@H]3O[C@]4(O)O[C@@H]([C@@H](O)[C@@]2(N1)[C@@H]4O)[C@@]3(O)CO ?
Output: 7.48

Input: Please give the measured pEC50 for this molecule: NC1=N[C@H](O)[C@H]2[C@H]3O[C@]4(O)O[C@@H]([C@H](O)[C@@]2(N1)[C@@H]4O)[C@]3(O)CO
Output: 6.96
